Target: T1, Cynomolgus CD3εδ Fc heterodimer (Cy CD3ε Fc / CD3δ Fc-HIS) (cynomolgus, UniProt Q95LI8 22-100)
T1 chain 1: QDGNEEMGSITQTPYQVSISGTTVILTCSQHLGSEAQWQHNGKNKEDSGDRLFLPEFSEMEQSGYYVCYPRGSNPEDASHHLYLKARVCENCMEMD
T1 chain 2: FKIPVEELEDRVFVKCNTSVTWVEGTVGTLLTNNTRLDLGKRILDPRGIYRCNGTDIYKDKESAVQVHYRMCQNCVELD
Assay: BLI (Octet), IgG on AHC sensor, pH 7.4
A collection of binders and their measured pKd
Entry type: numeric. Quantity: pKd, the -log10 of concentration in molar units.

Worked cases, pKd given:
LAD9959_P01_E04 (ADI-57441) (antibody, V domains shown, IgG; also called Ab172) VH: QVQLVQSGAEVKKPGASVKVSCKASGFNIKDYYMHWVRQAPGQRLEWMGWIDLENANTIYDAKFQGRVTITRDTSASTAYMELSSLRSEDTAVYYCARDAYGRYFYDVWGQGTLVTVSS VL: DIVMTQSPDSLAVSLGERATINCKSSQSLLNARTHHNYLAWYQQKPGQPPKLLIYWASTRESGVPDRFSGSGSGTDFTLTISSLQAEDVAVYYCKQSYSRRTFGGGTKVEIK
7.05
SAD10320_P01_B03 (ADI-57354) (antibody, V domains shown, IgG; also called Ab61) VH: QVQLVQSGAEVKKPGASVKVSCKASGFNIKDYYMHWVRQAPGQRLEWMGWIDLENANTIYDAKFQGRVTITRDTSASTAYMELSSLRSDDTAVYYCARDQHGRYFYDVWGQGTLVTVSS VL: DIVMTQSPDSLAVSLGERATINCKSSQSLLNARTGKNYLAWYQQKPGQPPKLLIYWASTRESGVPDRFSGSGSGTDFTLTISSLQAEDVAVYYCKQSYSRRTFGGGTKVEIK
7.12
SAD10319_P02_A06 (ADI-57320) (antibody, V domains shown, IgG; also called Ab8) VH: QVQLVQSGAEVKKPGASVKVSCKASGYTFDAYAMHWVRQAPGQRLEWMGWIDAGTGATKYSQKFQGRVTITRDTSASTAYMELSSLRSEDTAVYYCARDHYGHYFYDVWGQGTLVTVSS VL: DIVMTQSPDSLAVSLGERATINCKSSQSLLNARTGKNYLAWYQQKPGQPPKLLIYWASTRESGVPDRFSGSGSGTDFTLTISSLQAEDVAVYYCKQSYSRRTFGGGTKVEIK
7.52
SAD10319_P01_E02 (ADI-57304) (antibody, V domains shown, IgG; also called Ab240) VH: QVQLVQSGAEVKKPGASVKVSCKASGYTFTSDFMHWVRQAPGQRLEWMGWINPATGATKYSQKFQGRVTITRDTSASTAYMELSSLRSEDTAVYYCARDAYGHYFYDHWGQGTLVTVSS VL: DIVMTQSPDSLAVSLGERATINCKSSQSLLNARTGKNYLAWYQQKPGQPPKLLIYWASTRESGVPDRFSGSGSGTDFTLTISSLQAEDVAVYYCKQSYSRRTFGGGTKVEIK
6.84
SAD10320_P02_G06 (ADI-57371) (antibody, V domains shown, IgG; also called Ab88) VH: QVQLVQSGAEVKKPGASVKVSCKASGFNIKDYYMHWVRQAPGQRLDWMGWIDLENANTIYDAKFQGRVTITRDTSASTAYMELSSLRSEDTAVYYCARDAYGRHFYDVWGQGTLVTVSS VL: DIVMTQSPDSLAVSLGERATINCKSSQSLLNARTRTNYLAWYQQKPGQPPKLLIYWASTRESGVPDRFSGSGSGTDFTLTISSLQAEDVAVYYCKQSYSRRTFGGGTKVEIK
7.19

We now examine a further binder.
query: Reported pKd, binder SAD10319_P02_H06 (ADI-48633) (antibody, V domains shown, IgG; also called Ab16) VH: QVQLVQSGAEVKKPGASVKVSCKASGYTFTAYVMHWVRQAPGQRLEWMGSIDAGTGNTKYSQKFQGRVTITRDTSASTAYMELSSLRSEDTAVYYCARDAYGHYFYDHWGQGTLVTVSS VL: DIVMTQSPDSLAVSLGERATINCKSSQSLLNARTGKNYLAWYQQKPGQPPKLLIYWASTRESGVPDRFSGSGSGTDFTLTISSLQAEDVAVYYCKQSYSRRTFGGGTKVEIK : ____
result: 7.11

Origin of measurements: patent US20220380463A1
